Would you kindly list pKd for each of these molecules?
# pKd = -log10(concentration in molar units)

**Q:** For the record NC(=O)c1ccc(S(N)(=O)=O)cc1 , what value of pKd is listed for UniProtKB P00918?
**A:** 6.92

**Q:** # query: pKd | item Cc1ccccc1CNC(=O)c1ccc(S(N)(=O)=O)cc1 | system: UniProtKB P00918
**A:** 8.66

**Q:** Please provide the recorded pKd for CCCCc1ccc(COC(=O)CNC(=O)CNC(=O)CNC(=O)c2ccc(S(N)(=O)=O)cc2)cc1 , tested on UniProtKB P00918.
**A:** 7.28

**Q:** Please state recorded pKd (tested on UniProtKB P00918) of NS(=O)(=O)c1ccc(C(=O)N[C@H](Cc2ccccc2)C(=O)NCC(=O)NCC(=O)OCc2ccccc2)cc1
**A:** 7.44

**Q:** Find pKd (UniProtKB P00918) for the entry NS(=O)(=O)c1ccc(C(=O)NCC(F)(F)C(F)(F)C(F)(F)C(F)(F)C(F)(F)C(F)(F)C(F)(F)F)cc1
**A:** 9.52

**Q:** # value lookup — system UniProtKB P00918, readout pKd, item NS(=O)(=O)c1ccc(C(=O)NCc2ccc(F)c(F)c2F)cc1
**A:** 8.64

**Q:** API: value(readout=pKd, system=UniProtKB P00918) for record NS(=O)(=O)c1ccc(C(=O)NCc2cccc3ccccc23)cc1
**A:** 9.22

**Q:** Write down the reported pKd of NS(=O)(=O)c1ccc(C(=O)N[C@@H](Cc2ccccc2)C(=O)NCC(=O)NCC(=O)OCc2ccccc2)cc1 , test system: UniProtKB P00918.
**A:** 8.28

**Q:** Form field: pKd recorded for NS(=O)(=O)c1ccc(C(=O)NCC(=O)NCC(=O)NCC(=O)NCC(=O)OCc2ccccc2)cc1 with UniProtKB P00918 (enter value)
**A:** 6.68

**Q:** Lookup: pKd / UniProtKB P00918 / NS(=O)(=O)c1ccc(C(=O)NCC(=O)NCC(=O)OCc2ccccc2)cc1
**A:** 7.15
